FYI, the data here is from ChEMBL document CHEMBL1201862.

Measured GI50 accompanies every entry in the list below.
System: MDA-N
protocol description: NCI tumour cell line growth inhibition, 48 h
The source made the active and inactive calls. No stated cut-off is given here; in the data, active = GI50 up to about 1.1 µM and inactive = higher.

What does the data say about its GI50? Entry: "O=S(=O)(Nc1ccccc1S(=O)(=O)c1ccccc1)c1ccccc1"
> 100 µM (inactive)

What does the data say about its GI50? Entry: "O=C(CSc1n[nH]c(=O)[nH]c1=O)NNC(=O)c1cccc2nc3ccccc3nc12"
35.6 µM (inactive)

What does the data say about its GI50? Entry: "CC(=O)Nc1ccc2cc(C)c(O)nc2n1"
> 100 µM (inactive)

---

Measured GI50 accompanies every entry in the list below.
Tested on: SF-539
protocol description: NCI tumour cell line growth inhibition, 48 h
The source made the active and inactive calls. No stated cut-off is given here; in the data, active = GI50 up to about 1.1 µM and inactive = higher.

// map "COc1cc(OC)c2c(=O)c3cccc([N+](=O)[O-])c3n(C)c2c1" to recorded GI50 (system: SF-539)
74 µM (inactive)

// map CC(C)(C)[Si](C)(C)OC1C(=O)C[C@H]2CCCC[C@@H]12 (stereo not given in full) to recorded GI50 (system: SF-539)
> 100 µM (inactive)

// map "CCN(CC)C(=O)N1CN(c2ccccc2)C2(CCN(CCCC3(c4ccc(F)cc4)OCCO3)CC2)C1=O" to recorded GI50 (system: SF-539)
16.6 µM (inactive)

// map "CCCCc1ccc(-n2sc3ncc([N+](=O)[O-])cc3c2=O)cc1" to recorded GI50 (system: SF-539)
15.3 µM (inactive)

// map "Cc1ccc(-c2cc(-c3ccco3)nc(N)n2)o1" to recorded GI50 (system: SF-539)
> 100 µM (inactive)

// map "CCNc1nnc(-c2nsc3ccccc23)s1" to recorded GI50 (system: SF-539)
56.2 µM (inactive)

// map "Cc1nc2c(=O)[nH]c3ccc(Cl)cc3c2o1" to recorded GI50 (system: SF-539)
> 100 µM (inactive)

// map "O=C(O/N=C1/CCC/C1=C\c1ccccc1)c1ccc(Cl)cc1" to recorded GI50 (system: SF-539)
25.2 µM (inactive)

// map "CC(=O)Nc1ccc(/C=C/[N+](=O)[O-])cc1" to recorded GI50 (system: SF-539)
2.37 µM (inactive)

// map "CCOC(=O)N1CCC(N[C@@H]2c3cc4c(cc3[C@@H](c3cc(OC)c(O)c(OC)c3)[C@H]3C(=O)OC[C@@H]32)OCO4)CC1" to recorded GI50 (system: SF-539)
1.23 µM (inactive)
